- tested.on: GDP KRAS G12D (Homo sapiens, UniProt P01116, G12D)
- Sequence (P01116 1-188 isoform P01116-2 G12D): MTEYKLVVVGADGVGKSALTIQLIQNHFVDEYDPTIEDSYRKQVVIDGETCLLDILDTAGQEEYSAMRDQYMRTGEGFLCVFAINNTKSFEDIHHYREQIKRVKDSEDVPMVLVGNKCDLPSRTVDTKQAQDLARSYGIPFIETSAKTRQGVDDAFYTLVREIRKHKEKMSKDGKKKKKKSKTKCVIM
- test.protocol: SPR binding affinity, GDP KRAS G12D
- condition.set: GDP-bound KRAS G12D
measured.property: Kd

// worked examples, Kd included
CN(C)C1CN(c2nc(NCCN)c3cc(Cl)c(-c4ccc(F)c5sc(N)nc45)c(F)c3n2)C1; 1 to 10 µM
CN1C2CCC1CN(c1nc(OC[C@@]34CCCN3C[C@H](F)C4)nc3c(F)c(-c4ccc(F)c5sc(N)nc45)c(C(F)(F)F)cc13)C2; ≤ 0.1 µM
CN(c1nc(OC[C@@]23CCCN2C[C@H](F)C3)nc2c(F)c(-c3ccc(F)c4sc(N)nc34)c(C(F)(F)F)cc12)C1C2C[C@H]1CN2 (stereo partly shown); ≤ 0.1 µM
Nc1nc2c(-c3c(Cl)cc4c(N5CCNCC5)ncnc4c3F)ccc(F)c2s1; 1 to 10 µM
Nc1nc2c(-c3c(C(F)(F)F)cc4c(NC5CNC5)nc(OCC56CCCN5CCC6)nc4c3F)ccc(F)c2s1; ≤ 0.1 µM

Inquiry: Quick check: Kd of CN(C)C1CN(c2nc(N3CCNCC3)c3cc(Cl)c(-c4ccc(F)c5sc(N)nc45)c(F)c3n2)C1 ?
Reply text: 1 to 10 µM

Inquiry: Consider the compound shown here: Nc1nc2c(-c3c(C(F)(F)F)cc4c(N5CC6CC5CN6)nc(OC[C@@]56CCCN5C[C@H](F)C6)nc4c3F)ccc(F)c2s1 (stereo partly shown) What is its recorded Kd?
Reply text: ≤ 0.1 µM

---

Entries and their pIC50
- tested.on: Avi-KRAS G12D/Q25A (1-169) GppNHp/3×FLAG-PI3KCA (157-299) (Homo sapiens, UniProt P01116, G12D/Q25A)
- Construct: Avi-KRAS G12D/Q25A (1-169) GppNHp
- Sequence (P01116 1-169 isoform P01116-2 G12D/Q25A limits assumed): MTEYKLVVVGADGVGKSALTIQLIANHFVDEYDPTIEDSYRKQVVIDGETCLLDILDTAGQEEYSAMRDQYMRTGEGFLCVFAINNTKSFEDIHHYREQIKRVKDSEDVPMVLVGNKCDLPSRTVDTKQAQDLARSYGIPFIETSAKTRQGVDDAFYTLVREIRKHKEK
- test.protocol: HTRF PI3KCA-KRAS G12D/Q25A-GppNHp disruption assay
- condition.set: 1 h incubation
pIC50: −log10 of the molar value.

Answered cases to consult:
N#CCCN1CCC[C@H]1COc1nc(NC2CNC2)c2cc(Cl)c(-c3ccc(F)c4sc(N)nc34)c(F)c2n1; 4.52 to 5.00
Nc1nc2c(-c3c(C(F)(F)F)cc4c(N[C@H]5C[C@@H]6CC[C@H]5N6)nc(OCC56CCCN5CCC6)nc4c3F)ccc(F)c2s1 (atropisomer, axis not shown); 5.00 to 6.00
CN1CCC[C@H]1COc1nc(NCCN)c2cc(C(F)(F)F)c(-c3ccc(F)c4sc(N)nc34)c(F)c2n1; 5.00 to 6.00
N#CC[C@H]1CN(c2ncnc3c(F)c(-c4ccc(F)c5sc(N)nc45)c(Cl)cc23)CCN1C(=O)CN; 4.52 to 5.00
N#Cc1c(N)sc2c(F)ccc(-c3c(C(F)(F)F)cc4c(N5CC6CCC(C5)N6)nc(OC[C@@]56CCCN5C[C@H](F)C6)nc4c3F)c12 (single isomer, unassigned) [Compound 367]; 5.00 to 6.00
CN1CCC[C@H]1COc1nc(NC2CCNCC2)c2cc(Cl)c(-c3ccc(F)c4sc(N)nc34)c(F)c2n1; 5.00 to 6.00
Nc1nc2c(-c3c(C(F)(F)F)cc4c(N5CC6CC5CN6)nc(OC[C@@]56CCCN5C[C@H](F)C6)nc4c3F)ccc(F)c2s1 (some centres unmarked) [Compound 226]; 6.00 to 7.00
NCC(=O)N1CCN(c2nc(OCC34CCCN3CCC4)nc3c(F)c(-c4ccc(F)c5sc(N)nc45)c(C(F)(F)F)cc23)CC1; 5.00 to 6.00
Nc1nc2c(-c3c(C(F)(F)F)cc4c(N5CC6CCC(C5)N6)nc(OCC56CCCN5CCC6)nc4c3F)ccc(F)c2s1; 6.00 to 7.00
CN(C)CCNc1nc(OC[C@@H]2CCCN2C)nc2c(F)c(-c3ccc(F)c4sc(N)nc34)c(Cl)cc12; 4.52 to 5.00

# next compound below
Inquiry: # input compound: Nc1nc2c(-c3c(Cl)cc4c(N5CCNCC5)nc(OCC56CCCN5CCC6)nc4c3F)ccc(F)c2s1 ; wanted: its pIC50
Reply text: 5.00 to 6.00

Cited source: patent US20240246954A1
